# Tested on: Plasmodium falciparum
# assay procedure: Primary screen in NF54 nanoGlo assay, in single point, at 2uM, 72h
# Assay type: functional, Erythrocyte
# recorded conditions: timepoint 72 hour
Out of some 150,000 compounds screened, about 540 (0.36%) showed an effect of 50% or more. The list comes from a sample in which strong results are over-represented; it also holds close analogues and randomly drawn compounds.
Label scheme for % Inhibition: lower than 60% is Not met, 60% and above is Met.

                           smiles_structure  class_label
0  COc1ccc(-c2cc(C(=O)N[C@H]3CCN(c4ccc(=O)n(C)n4)C3)c(C)n2C)cc1          Met
1                Nc1ccnc2c(-c3ccncc3)cccc12      Not met
2  COc1ccc(-c2cc(C(=O)N[C@H]3CCN(c4ccc(=O)[nH]n4)C3)c(C)n2C)cc1          Met
3  Cc1cc(C(=O)N[C@H]2CCOC[C@@H]2OCc2ccccc2)c(C)n1C      Not met

Hi team, for "Cc1c(C(=O)NC2CC2)cc(-c2ccccc2)n1C" , is the recorded % Inhibition at or above 60%?
Not met

Hi team, for "COc1ccc(-c2cc(N3CC[C@H](NC(=O)c4ccc(C)cc4)C3)[nH]n2)cc1" , is the recorded % Inhibition at or above 60%?
Not met
